# System tested: hP2X3 (human Purinergic P2X receptors subtype 3) (Homo sapiens, UniProt P56373)
# Construct: expressed in transfected cells
# Sequence (P56373 whole entry): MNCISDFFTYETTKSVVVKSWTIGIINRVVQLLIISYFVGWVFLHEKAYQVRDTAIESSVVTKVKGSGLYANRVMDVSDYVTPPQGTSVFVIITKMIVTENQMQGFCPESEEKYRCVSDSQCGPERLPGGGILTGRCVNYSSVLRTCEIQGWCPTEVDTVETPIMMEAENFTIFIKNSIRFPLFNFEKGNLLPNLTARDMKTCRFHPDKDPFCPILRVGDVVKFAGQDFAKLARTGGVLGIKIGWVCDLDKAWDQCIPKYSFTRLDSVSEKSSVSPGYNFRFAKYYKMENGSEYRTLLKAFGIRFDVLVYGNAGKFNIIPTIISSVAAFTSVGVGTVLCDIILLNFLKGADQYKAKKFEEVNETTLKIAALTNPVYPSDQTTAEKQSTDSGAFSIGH
# Experiment notes: Fluo-4 calcium mobilization assay, α,β methylene-ATP as agonist (Method 2)
# Assay type: cell-based
# Experimental context: RLE cells stably expressing hP2X3; α,β methylene-ATP instead of ATP; read-out: Human P2X3 IC50 (μM) Method 2
Quantity measured: IC50 (µM)
Give just the numeric value; µM need not be written.

Item CNC(=O)c1cc(F)c(-c2nc3cc(C)ccc3n2C[C@H]2CN(C(=O)OC)CCO2)c(F)c1 [Example 3] was tested on hP2X3 (human Purinergic P2X receptors subtype 3) (Homo sapiens, UniProt P56373); the reported IC50 is 0.014

* * *

# System tested: hP2X3 (human Purinergic P2X receptors subtype 3) (Homo sapiens, UniProt P56373)
# Construct: expressed in transfected cells
# Experiment notes: FLIPR FLUO-4 AM calcium assay, α,β-methylene-ATP as agonist (Method 3)
# Type: cell-based
# Experimental context: hP2X3-expressing RLE cells, 500 nM α,β-methylene-ATP, read-out: Human P2X3 IC50 (μM) Method 3
Quantity measured: IC50 (µM)
Give just the numeric value; µM need not be written.

CNC(=O)c1cc(F)c(-c2nc3cc(C)ccc3n2C[C@@H]2CN(C(=O)OC)CCO2)c(F)c1 :: 0.016

Pending molecule:
Short answer for CNC(=O)c1cc(F)c(-c2nc3cc(C)ccc3n2C[C@H]2CN(C(=O)OC)CCO2)c(F)c1 : IC50 was 0.016

These measurements were taken from patent US8530467B2.
